System: 2.2.15 cells (HepG2 cells transformed with hepatitis virion)
TEST METHOD NOTES: Toxicity in 2.2.15 cells by neutral red dye uptake
Format: cell-based
EXPERIMENTAL PARAMETERS: Table 4; 2.2.15 cells; read-out: Cytotoxicity IC50 ± SD
QUANTITY NAME: pIC50
// pIC50 here means minus log10 of the molar concentration (mol/L)

Record summary for Nc1ccn([C@@H]2C=C[C@H](CO)O2)c(=O)n1 : reported pIC50 = 2.98
